experimentNotes: Cmax in patient with kidney disease at 300 mg, po
Type: ADME, organism-based
Parameters: dose 300 mg, route oral
runParameters: human, in vivo
quantityKind: Cmax (nM)

[[record]]
compound = "CCN(CC)CCCC(C)Nc1ccnc2cc(Cl)ccc12 (stereo unspecified) [CHLOROQUINE]"
displayunit = "nM"
numericvalue = 240


Provenance of the data: ChEMBL document CHEMBL1137635
